Target: T1, human soluble urokinase plasminogen activator receptor (suPAR) (human, UniProt Q03405 23-303, limits assumed)
T1 construct: Column head says only 'human'; also called hsuPAR; human suPAR
T1 sequence (Q03405 23-303 limits assumed): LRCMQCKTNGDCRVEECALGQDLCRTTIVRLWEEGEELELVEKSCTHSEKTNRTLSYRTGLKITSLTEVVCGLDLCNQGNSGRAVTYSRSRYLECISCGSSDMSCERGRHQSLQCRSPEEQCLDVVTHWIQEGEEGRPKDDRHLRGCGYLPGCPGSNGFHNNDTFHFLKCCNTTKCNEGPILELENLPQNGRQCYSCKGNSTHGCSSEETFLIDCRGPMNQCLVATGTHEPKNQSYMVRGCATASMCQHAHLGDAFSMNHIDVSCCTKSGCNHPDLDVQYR
Assay: BLI (Octet) off-rate screen of scFv clones
READOUT_KIND: koff
Please provide the amount together with its unit, number first.

Reported koff for suPAR_DB05_C11 (scFv, V domains shown, Screened as scFv) VH: QVQLVQSGAEVKKPGASVKVSCKASGYIFTSYYMHWVRQAPGQGLEWMGWIDPYSGATNYAQKFQGRVTMTRDTSTSTVYMELSSLRSEDTAVYYCARGYDVDWFVYWGQGTLVTVSS VL: DIQMTQSPSSLSASVGDRVTITCRARSSISYMYWYQQKPGKAPKLLIYRTSNLASGVPSRFSGSGSGTDFTLTISSLQPEDFATYYCQQYHSYPPTFGGGTKVEIK was 0.00335 s⁻¹

Reported koff for suPAR_DB05_A08 (scFv, V domains shown, Screened as scFv) VH: QVQLVQSGAEVKKPGASVKVSCKASGYTFTNYYMHWVRQAPGQGLEWMGWIDSNSGGTNYAQKFQGRVTMTRDTSTSTVYMELSSLRSEDTAVYYCARGYDVDWFVYWGQGTLVTVSS VL: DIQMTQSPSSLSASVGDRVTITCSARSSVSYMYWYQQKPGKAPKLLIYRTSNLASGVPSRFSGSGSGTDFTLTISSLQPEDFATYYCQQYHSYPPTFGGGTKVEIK was 0.00307 s⁻¹

We next turn to a different binder, shown below.
Reported koff for suPAR_DB05_B02 (scFv, V domains shown, Screened as scFv) VH: QVQLVQSGAEVKKPGASVKVSCKASGYTIKDYYIHWVRQAPGQGLEWMGWIDPENGNTIYAQKFQGRVTMTRDTSTSTVYMELSSLRSEDTAVYYCARGYDVDWFVYWGQGTLVTVSS VL: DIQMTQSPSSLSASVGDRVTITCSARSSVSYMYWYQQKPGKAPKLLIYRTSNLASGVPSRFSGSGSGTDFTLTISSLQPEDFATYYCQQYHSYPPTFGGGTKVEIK was 0.00565 s⁻¹

The measured values listed here are drawn from patent US20250215104A1.
